Let's go through some recorded pKi values for hCA XII (Homo sapiens, UniProt O43570) together.
The quantity pKi is defined as the negative base-10 logarithm of the molar concentration.

Recorded result, COC(=O)Cc1c(C)c2ccc(OCC(=O)c3ccc(-c4ccccc4)cc3)c(C)c2oc1=O [EMAC10163g] , pKi: 5.05

Recorded result, COC(=O)Cc1c(C)c2ccc(OCC(=O)c3cccc([N+](=O)[O-])c3)c(C)c2oc1=O [EMAC10163f] , pKi: 5.11

Recorded result, Cc1c(CC(=O)O)c(=O)oc2c(C)c3occ(-c4ccc(-c5ccccc5)cc4)c3cc12 [EMAC10164g] , pKi: 6.09

Recorded result, COC(=O)Cc1c(C)c2ccc(OCC(=O)c3ccc(OC)cc3)c(C)c2oc1=O [EMAC10163b] , pKi: 6.33
